# studyTarget: S. aureus Uridine-diphosphate-N-acetvimuramoyl: L-alanine lipase, MurC (Staphylococcus aureus)
# Sequence (Q2FXJ0 whole entry): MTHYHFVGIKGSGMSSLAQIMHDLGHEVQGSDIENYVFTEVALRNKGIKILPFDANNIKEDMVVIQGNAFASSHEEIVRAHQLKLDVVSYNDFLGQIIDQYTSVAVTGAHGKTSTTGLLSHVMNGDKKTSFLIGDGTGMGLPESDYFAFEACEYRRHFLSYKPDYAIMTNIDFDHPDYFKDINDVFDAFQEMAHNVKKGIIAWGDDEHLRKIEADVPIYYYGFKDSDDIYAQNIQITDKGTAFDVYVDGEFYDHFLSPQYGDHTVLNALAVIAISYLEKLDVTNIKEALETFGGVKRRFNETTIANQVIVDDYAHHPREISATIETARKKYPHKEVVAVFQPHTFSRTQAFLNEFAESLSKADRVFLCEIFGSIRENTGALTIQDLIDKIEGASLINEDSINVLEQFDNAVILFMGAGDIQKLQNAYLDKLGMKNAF
# testName: biochemical
# conditions: (S) S. aureus enzyme; read-out: MurC IC50 (converted)
propertyMeasured: IC50

What does the data say about its IC50? Entry: O=C1O/C(=C\c2cccc3ccccc23)C(O)=C1c1cc(Cl)cc(Cl)c1 20.9 µM

What does the data say about its IC50? Entry: O=C1O/C(=C\c2ccc(-c3ccccc3)cc2)C(O)=C1c1cccc(Cl)c1 13.3 µM

What does the data say about its IC50? Entry: CN(C)c1ccc(/C=C2\OC(=O)C(c3ccc(C(F)(F)F)cc3)=C2O)c2ccccc12 37.6 µM

What does the data say about its IC50? Entry: Cc1cc(/C=C2\OC(=O)C(c3cc(Cl)cc(Cl)c3)=C2O)ccc1-c1ccccc1C(F)(F)F > 50.9 µM

----------
# Test system: C. elegans
# testName: Efficacy against nematodes (C. elegans motility rating)
# Design: key: 0: no effect; 7: reduced movement in 24 h; 8: dead in 24 h; 9: dead in 4 h
# conditions: dose 100 ppm, observations at 4 h and 24 h postimmersion
propertyMeasured: Rating
Give only the figure.

What does the data say about its Rating? Entry: O=C1OC(=Cc2cnccc2-c2cccs2)C(O)=C1c1ccc(OC(F)(F)F)cc1 (mixture of isomers) 9

What does the data say about its Rating? Entry: O=C1O/C(=C\c2ccc(Cl)cc2)C(O)=C1c1cccs1 7

What does the data say about its Rating? Entry: N#Cc1cccc(C2=C(O)C(=Cc3ccc(F)cc3)OC2=O)c1 (mixture of isomers) 7

What does the data say about its Rating? Entry: O=C1OC(=Cc2c[nH]c(-c3ccccc3)n2)C(O)=C1c1ccc(OC(F)(F)F)cc1 (mixture of isomers) 0

What does the data say about its Rating? Entry: N#Cc1ccc(C=C2OC(=O)C(c3ccc(OC(F)(F)F)cc3)=C2O)cc1 (mixture of isomers) 9

What does the data say about its Rating? Entry: O=C1OC(=Cc2ccc(-c3ccc(Cl)cc3)cc2)C(O)=C1c1ccc(OC(F)(F)F)cc1 (mixture of isomers) 9

What does the data say about its Rating? Entry: O=C1OC(=Cc2cccnc2Cl)C(O)=C1c1ccc(OC(F)(F)F)cc1 (mixture of isomers) 9

----------
# System: enterococci
# testName: Minimum inhibitory concentration, microdilution broth method, enterococci
# Format: cell-based
# conditions: Enterococcus faecalis, E. faecalis GC 4555; Mueller-Hinton broth, 18-22 hours at 35° C.; read-out: MIC E. faecalis GC 4555
Quick rule for you: MIC under 8 µg/mL gets rule met, anything else gets rule not met.

Record O=C1O/C(=C\c2ccccc2C(F)(F)F)C(O)=C1c1ccc(-c2ccccc2)cc1 [Example 99] : is its MIC strictly below 8 µg/mL? rule not met

Record O=C1O/C(=C\c2ccc(-c3ccccc3)cc2)C(O)=C1c1cccs1 [Example 144] : is its MIC strictly below 8 µg/mL? rule not met

Record O=C1O/C(=C\c2cccc(C(F)(F)F)c2)C(O)=C1c1ccc(-c2ccccc2)c(F)c1 [Example 106] : is its MIC strictly below 8 µg/mL? rule met

Record O=C1O/C(=C\c2cccc(C(F)(F)F)c2)C(O)=C1c1ccc2ccccc2c1 [Example 42] : is its MIC strictly below 8 µg/mL? rule not met

Record O=C1O/C(=C\c2ccccc2-c2ccc(Cl)cc2)C(O)=C1c1ccc(Cl)cc1 [Example 137] : is its MIC strictly below 8 µg/mL? rule met

----------
# studyTarget: E. coli UDP-N-acetylglucosamine enolpyruvoyl transferase, MurA (Escherichia coli)
# Sequence (P0A749 whole entry): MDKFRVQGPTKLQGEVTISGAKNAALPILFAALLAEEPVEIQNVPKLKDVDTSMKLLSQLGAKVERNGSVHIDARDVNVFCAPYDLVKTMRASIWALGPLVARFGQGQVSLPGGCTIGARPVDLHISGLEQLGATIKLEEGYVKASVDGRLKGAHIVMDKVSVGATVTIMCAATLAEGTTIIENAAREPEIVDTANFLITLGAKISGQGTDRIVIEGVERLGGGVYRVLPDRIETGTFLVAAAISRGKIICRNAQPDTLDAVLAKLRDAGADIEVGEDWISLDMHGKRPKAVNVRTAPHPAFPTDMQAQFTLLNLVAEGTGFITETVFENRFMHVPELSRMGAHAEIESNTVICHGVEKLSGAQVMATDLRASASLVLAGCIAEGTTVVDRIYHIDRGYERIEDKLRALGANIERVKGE
# testName: biochemical
# conditions: (E) E. coli enzyme
Hi there, I'd appreciate the recorded MurA IC50 for every entry that follows.

Kindly state the measured MurA IC50 obtained for Cc1ccc(C=C2OC(=O)C(c3ccc(Cl)cc3)=C2O)s1 [Example 14] with E. coli UDP-N-acetylglucosamine enolpyruvoyl transferase, MurA (Escherichia coli). 5 (E) μg/mL

Kindly state the measured MurA IC50 obtained for O=C1O/C(=C\c2cccc(C(F)(F)F)c2)C(O)=C1c1ccc(-c2ccccc2)cc1 with E. coli UDP-N-acetylglucosamine enolpyruvoyl transferase, MurA (Escherichia coli). 17 (E) μg/mL

Kindly state the measured MurA IC50 obtained for O=C1O/C(=C\c2ccc(-c3cc(Cl)cc(Cl)c3)cc2)C(O)=C1c1cc(Cl)cc(Cl)c1 with E. coli UDP-N-acetylglucosamine enolpyruvoyl transferase, MurA (Escherichia coli). 1 (E) μg/mL

Kindly state the measured MurA IC50 obtained for O=C1O/C(=C\c2cc(C(F)(F)F)ccc2Cl)C(O)=C1c1ccc(-c2ccccc2)c(F)c1 with E. coli UDP-N-acetylglucosamine enolpyruvoyl transferase, MurA (Escherichia coli). 3 (E) μg/mL

Kindly state the measured MurA IC50 obtained for N#Cc1ccc(C2=C(O)/C(=C/c3ccc(-c4ccc(C#N)cc4)cc3)OC2=O)cc1 with E. coli UDP-N-acetylglucosamine enolpyruvoyl transferase, MurA (Escherichia coli). 7 (E) μg/mL

Kindly state the measured MurA IC50 obtained for O=C1OC(=CC2CCCCC2)C(O)=C1c1cccc(C(F)(F)F)c1 with E. coli UDP-N-acetylglucosamine enolpyruvoyl transferase, MurA (Escherichia coli). >25 (E) μg/mL

----------
# Tested on: enterococci
# testName: Minimum inhibitory concentration, microdilution broth method, enterococci
# Format: cell-based
# conditions: Enterococcus faecalis, E. faecalis GC 4555; Mueller-Hinton broth, 18-22 hours at 35° C.; read-out: MIC E. faecalis GC 4555
Quick rule for you: MIC under 4 µg/mL gets t, anything else gets f.

Record O=C1O/C(=C\c2cc(C(F)(F)F)ccc2Cl)C(O)=C1c1ccc(-c2ccccc2)cc1 [Example 125] : is its MIC strictly below 4 µg/mL? f

Record CCOc1ccc(-c2ccc(C3=C(O)/C(=C/c4cccc(C(F)(F)F)c4Cl)OC3=O)cc2)cc1 [Example 117] : is its MIC strictly below 4 µg/mL? f

Record O=C1O/C(=C\c2cc(C(F)(F)F)ccc2F)C(O)=C1c1cccc(-c2ccccc2)c1 [Example 121] : is its MIC strictly below 4 µg/mL? f

Record Cc1cc(/C=C2\OC(=O)C(c3cc(Cl)cc(Cl)c3)=C2O)ccc1-c1ccccc1C(F)(F)F [Example 27] : is its MIC strictly below 4 µg/mL? t

Record O=C1O/C(=C\c2cccc(C(F)(F)F)c2)C(O)=C1c1cccc(-c2ccccc2)c1 [Example 108] : is its MIC strictly below 4 µg/mL? f

Record O=C1O/C(=C\c2ccc3ccccc3c2)C(O)=C1c1cccc(C(F)(F)F)c1 [Example 8] : is its MIC strictly below 4 µg/mL? f

----------
# studyTarget: S. aureus Uridine-diphosphate-N-acetvimuramoyl: L-alanine lipase, MurC (Staphylococcus aureus)
# testName: biochemical
# conditions: (S) S. aureus enzyme; read-out: MurC IC50 (converted)
Quick rule for you: IC50 under 40 µM gets MET, anything else gets NOT MET.

Record COc1ccccc1-c1ccc(/C=C2\OC(=O)C(c3cc(Cl)cc(Cl)c3)=C2O)cc1C : is its IC50 strictly below 40 µM? MET

Record O=C1O/C(=C\c2cccc(C(F)(F)F)c2)C(O)=C1c1ccc2ccccc2c1 : is its IC50 strictly below 40 µM? NOT MET

Record O=C1O/C(=C\C2CCCCC2)C(O)=C1c1cccc(C(F)(F)F)c1 : is its IC50 strictly below 40 µM? NOT MET

Record O=C1O/C(=C\c2ccc(N3CCOCC3)c3ccccc23)C(O)=C1c1cccc(Cl)c1 : is its IC50 strictly below 40 µM? MET

Record O=C1O/C(=C\c2ccc(-c3ccccc3)cc2)C(O)=C1c1csc2ccccc12 : is its IC50 strictly below 40 µM? MET

Record Cc1cc(/C=C2\OC(=O)C(c3cccc(Cl)c3)=C2O)ccc1-c1ccccc1Cl : is its IC50 strictly below 40 µM? NOT MET

Record Cc1ccc(/C=C2\OC(=O)C(c3ccc(-c4ccccc4)cc3)=C2O)s1 : is its IC50 strictly below 40 µM? NOT MET

Record O=C1O/C(=C\c2cccc(-c3cccc(Cl)c3)c2)C(O)=C1c1cccc(Cl)c1 : is its IC50 strictly below 40 µM? NOT MET

Record O=C1O/C(=C\c2ccc(C(F)(F)F)cc2)C(O)=C1c1ccc(-c2ccccc2)cc1 : is its IC50 strictly below 40 µM? MET

Record O=C1O/C(=C\C2CCCCC2)C(O)=C1c1ccc(-c2ccccc2)cc1 : is its IC50 strictly below 40 µM? NOT MET

Record COc1cc(/C=C2\OC(=O)C(c3cccc(Cl)c3)=C2O)ccc1-c1ccccc1Cl : is its IC50 strictly below 40 µM? MET

Record O=C1O/C(=C\C2CCCCC2)C(O)=C1c1ccc2ccccc2c1 : is its IC50 strictly below 40 µM? NOT MET

Record O=Cc1cccc(C2=C(O)/C(=C/c3cccc4ccccc34)OC2=O)c1 : is its IC50 strictly below 40 µM? NOT MET

Record COc1cc(/C=C2\OC(=O)C(c3cccc(Cl)c3)=C2O)ccc1-c1ccccc1C : is its IC50 strictly below 40 µM? MET

Record O=C1O/C(=C\c2ccccc2-c2ccc(Cl)c(Cl)c2)C(O)=C1c1ccc(Cl)c(Cl)c1 : is its IC50 strictly below 40 µM? NOT MET

Record O=C1O/C(=C\c2ccc(-c3ccccc3)cc2)C(O)=C1c1cc(Cl)cc(Cl)c1 : is its IC50 strictly below 40 µM? NOT MET

Record COc1cccc(C2=C(O)/C(=C/c3cccc4ccccc34)OC2=O)c1 : is its IC50 strictly below 40 µM? NOT MET

Record O=C1O/C(=C\c2ccc3ccccc3c2)C(O)=C1c1cccc2ccccc12 : is its IC50 strictly below 40 µM? MET

Record O=C1O/C(=C\c2ccc(-c3ccccc3)cc2)C(O)=C1c1cccs1 : is its IC50 strictly below 40 µM? MET

Record O=C1O/C(=C\c2ccc3ccccc3c2)C(O)=C1c1ccc(Cl)cc1 : is its IC50 strictly below 40 µM? MET

Record O=C1O/C(=C\c2ccccc2-c2ccc(Cl)cc2)C(O)=C1c1ccc(Cl)cc1 : is its IC50 strictly below 40 µM? NOT MET

Record CN(C)c1ccc(/C=C2\OC(=O)C(c3cc(Cl)cc(Cl)c3)=C2O)c2ccccc12 : is its IC50 strictly below 40 µM? NOT MET

Record COc1ccc(/C=C2\OC(=O)C(c3cc(Cl)cc(Cl)c3)=C2O)c2ccccc12 : is its IC50 strictly below 40 µM? MET

Record COc1cc(/C=C2\OC(=O)C(c3cc(Cl)cc(Cl)c3)=C2O)ccc1-c1ccccc1C : is its IC50 strictly below 40 µM? MET

Record O=C1O/C(=C\c2ccc(N3CCOCC3)c3ccccc23)C(O)=C1c1cc(Cl)cc(Cl)c1 : is its IC50 strictly below 40 µM? MET

Record COc1cc(/C=C2\OC(=O)C(c3cc(Cl)cc(Cl)c3)=C2O)ccc1-c1ccccc1C(F)(F)F : is its IC50 strictly below 40 µM? NOT MET

Record COc1cc(/C=C2\OC(=O)C(c3cc(Cl)cc(Cl)c3)=C2O)ccc1-c1ccccc1Cl : is its IC50 strictly below 40 µM? NOT MET

Record O=C1O/C(=C\c2cccc(-c3cc(Cl)cc(Cl)c3)c2)C(O)=C1c1cc(Cl)cc(Cl)c1 : is its IC50 strictly below 40 µM? NOT MET

Record Cc1ccccc1-c1ccc(/C=C2\OC(=O)C(c3cccc(Cl)c3)=C2O)cc1C : is its IC50 strictly below 40 µM? NOT MET

Record COc1ccccc1-c1ccc(/C=C2\OC(=O)C(c3ccc(Cl)c(Cl)c3)=C2O)cc1OC : is its IC50 strictly below 40 µM? MET

Record O=C1O/C(=C\c2ccccc2-c2cccc(Cl)c2)C(O)=C1c1cccc(Cl)c1 : is its IC50 strictly below 40 µM? MET

Record Cc1ccccc1-c1ccc(/C=C2\OC(=O)C(c3cc(Cl)cc(Cl)c3)=C2O)cc1C : is its IC50 strictly below 40 µM? NOT MET
